- Tested on: HCC-2998 colon
- ASSAY_REMARKS: NCI tumour cell line growth inhibition, 48 h
PROPERTY_NAME: TGI

Example compounds with recorded TGI:
Value lookup for TGI; key = O=C1OC2c3ccccc3C(=O)C2(c2ccccc2)N1c1ccccc1 (stereo unspecified)
> 200 µM

Value lookup for TGI; key = O=C1c2ccccc2C(=O)c2c1oc(=O)c1ccccc21
6.96 µM

Value lookup for TGI; key = C[N+](C)(C)Cc1c(CC#N)[nH]c2ccccc12
> 100 µM

Value lookup for TGI; key = O=NNc1cnccn1
> 1250 µM

Value lookup for TGI; key = CCOC(=O)C1(C(=O)OCC)CSC1
0.853 µM

Then there is this compound:
Value lookup for TGI; key = O=C1C2C(C(=O)N1c1ccccc1)C1(c3ccccc3)OC2(c2ccccc2)c2ccccc21 (stereo unspecified)
> 100 µM

====

- Test system: A549 NSCLC
- ASSAY_REMARKS: NCI tumour cell line growth inhibition, 48 h
Parameter: GI50. Scope: all listed entries.

Value lookup for GI50; key = Cc1cc(NCCCCNc2ccnc3cc(Cl)ccc23)nc(Nc2ccc(C(=O)N3CCCC3)cc2)n1
3.29 µM

More entries:
Value lookup for GI50; key = CC(=O)c1c(O)ccc2c(C)c(C(=O)O)oc12
> 100 µM

Value lookup for GI50; key = O=C1CSC(=S)N1Cc1cccnc1
23.9 µM

Value lookup for GI50; key = CO/N=C(\COc1ccc2c(c1)oc(=O)c1cc(OC)ccc12)c1ccc(F)cc1
26.3 µM

====

- Tested on: HS 578T breast
- ASSAY_REMARKS: NCI tumour cell line growth inhibition, 48 h; in the data active = GI50 below about 0.43 µM; inactive = the rest
Respond with a class label; see active, inactive

Completed entries (count: 5):
Can you look up the reported call for CCCCCCCCCCCCCCCCOC(=O)c1c(C)[nH]c(/C=C2\N=C(c3ccc[nH]3)C=C2OC)c1C for me?
inactive

Can you look up the reported call for COc1cc2c3c(n(CCCCNC(=O)OCC4c5ccccc5-c5ccccc54)c(=O)c2cc1OC)-c1cc2c(cc1C3=O)OCO2 for me?
inactive

Can you look up the reported call for CC(C)(C)c1cn2cccc(C(=O)N3CCN(CC(=O)Nc4ccc(Cl)cc4C(=O)c4ccccc4Cl)CC3)c2n1 for me?
inactive

Can you look up the reported call for O=C1/C(=C/c2ccc([N+](=O)[O-])o2)Oc2ccccc21 for me?
inactive

Can you look up the reported call for COc1cc(-n2cc(-c3ccc(F)cc3)[nH]c2=S)cc(OC)c1OC for me?
inactive

More entries:
Can you look up the reported call for Cc1ccc(/C=C/C(=O)c2ccc(N)cc2)c(C)c1 for me?
inactive

Can you look up the reported call for COc1ccc(Cn2cnc3cc(C(=O)Nc4cccc5ccccc45)ccc32)c(OC)c1 for me?
active

Can you look up the reported call for CC(C)=CCc1ccc(O)c(=O)cc1C(C)C for me?
inactive

Can you look up the reported call for O=C1/C(=C/c2ccc(Cl)cc2)CN(Cc2cn(CCNc3ccnc4cc(Cl)ccc34)nn2)C/C1=C\c1ccc(Cl)cc1 for me?
inactive

Can you look up the reported call for Cc1cc(NCCCCNc2ccnc3cc(Cl)ccc23)nc(Nc2ccc(C(=O)N3CCCC3)cc2)n1 for me?
inactive

Can you look up the reported call for COc1ccc2c(c1)C(=O)/C(=C/c1ccc([N+](=O)[O-])s1)O2 for me?
active

Can you look up the reported call for CN1C(=O)c2cc([N+](=O)[O-])ccc2[C@H]2C(=O)c3cc4c(cc3[C@H]21)OCO4 for me?
inactive

Can you look up the reported call for O=C(N/N=c1/ccoc2cccnc12)N1CCN(c2ncccn2)CC1 for me?
inactive

Can you look up the reported call for O=C(CC(O)c1ccncc1)c1ccccc1 (stereo unspecified) for me?
inactive

Can you look up the reported call for CS(=O)(=O)Nc1cccc(-c2ccc3c(NC(=O)C4CC4)n[nH]c3c2)c1 for me?
inactive

Can you look up the reported call for COC(=O)c1oc2c(O)c(OC)c(Br)cc2c1C for me?
inactive
